Reference source: patent US20230285581A1

target: mouse MSR1 on RAW264.7 cells (mouse) (UniProt P30204); experiment: flow cytometry, RAW264.7 cells, 10 ug/mL
Sequence (P30204 whole entry): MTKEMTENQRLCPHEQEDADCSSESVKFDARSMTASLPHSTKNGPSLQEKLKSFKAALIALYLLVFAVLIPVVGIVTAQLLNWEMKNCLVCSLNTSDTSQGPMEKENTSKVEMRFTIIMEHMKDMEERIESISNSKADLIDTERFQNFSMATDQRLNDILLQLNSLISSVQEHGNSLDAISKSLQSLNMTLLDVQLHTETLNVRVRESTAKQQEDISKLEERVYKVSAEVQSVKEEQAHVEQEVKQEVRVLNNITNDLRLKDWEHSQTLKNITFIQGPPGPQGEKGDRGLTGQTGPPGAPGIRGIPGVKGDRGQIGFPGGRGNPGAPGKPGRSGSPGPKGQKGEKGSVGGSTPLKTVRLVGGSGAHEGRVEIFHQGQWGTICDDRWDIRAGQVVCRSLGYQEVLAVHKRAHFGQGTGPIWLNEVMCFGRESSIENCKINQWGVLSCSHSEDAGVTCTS
Measured Parameter: MFI
I only need the number, thanks.

Worked examples, 2 binders total:
Binder	MFI
H1H21227N-N297Q (antibody, human IgG1, V domains shown) VH: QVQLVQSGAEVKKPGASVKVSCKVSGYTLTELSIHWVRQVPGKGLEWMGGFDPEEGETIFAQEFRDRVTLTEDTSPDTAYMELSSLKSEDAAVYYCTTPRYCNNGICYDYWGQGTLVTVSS VL: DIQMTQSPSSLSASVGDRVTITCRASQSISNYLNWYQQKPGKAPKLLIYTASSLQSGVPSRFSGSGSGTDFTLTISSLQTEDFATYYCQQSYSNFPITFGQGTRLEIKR	12800
H1H27729P-N297Q (antibody, human IgG1, V domains shown) VH: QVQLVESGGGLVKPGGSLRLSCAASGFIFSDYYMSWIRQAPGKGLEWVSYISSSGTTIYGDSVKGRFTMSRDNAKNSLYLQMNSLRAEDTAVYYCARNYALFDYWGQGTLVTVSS VL: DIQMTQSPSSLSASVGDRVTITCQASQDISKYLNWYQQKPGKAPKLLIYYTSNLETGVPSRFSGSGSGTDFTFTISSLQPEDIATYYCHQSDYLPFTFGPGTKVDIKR	3480

Continue with the next binder.
Query string: Which MFI value belongs to H1H21231N-N297Q (antibody, human IgG1, V domains shown) VH: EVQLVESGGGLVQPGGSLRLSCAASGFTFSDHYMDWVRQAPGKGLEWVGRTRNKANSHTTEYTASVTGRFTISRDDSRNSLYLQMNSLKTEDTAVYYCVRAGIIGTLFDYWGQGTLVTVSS VL: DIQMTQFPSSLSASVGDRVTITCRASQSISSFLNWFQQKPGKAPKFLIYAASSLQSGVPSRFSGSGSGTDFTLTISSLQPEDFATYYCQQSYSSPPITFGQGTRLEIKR ?
Result string: 3580
